- MEASURED TARGET: 11β-HSD1 (Homo sapiens, UniProt P28845)
- Sequence (P28845 whole entry): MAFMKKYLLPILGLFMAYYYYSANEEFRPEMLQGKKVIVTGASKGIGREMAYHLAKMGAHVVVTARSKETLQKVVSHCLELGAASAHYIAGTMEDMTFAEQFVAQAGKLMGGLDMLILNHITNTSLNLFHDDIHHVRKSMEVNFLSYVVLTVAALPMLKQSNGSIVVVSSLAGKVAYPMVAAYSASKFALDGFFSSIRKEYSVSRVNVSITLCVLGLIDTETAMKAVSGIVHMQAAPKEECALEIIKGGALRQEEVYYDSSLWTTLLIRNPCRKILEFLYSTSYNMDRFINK
- ASSAY OVERVIEW: biochemical
- STUDY CONDITIONS: read-out: Average % inhibition at 100 nM, Biological Test Example 1; 100 nM compound
OUTCOME MEASURE: inhibition at 0.1 µM

C=CCC1(c2cccs2)CCN([C@@H](C)c2ccc(Br)cc2)C(=O)O1 (single isomer, unassigned) [EXAMPLE 157 Isomer 1] : 97.4%
C=CC[C@]1(c2ccc(F)cc2)CCN([C@@H](C)c2ccc(N3CCOCC3)cc2)C(=O)O1 : 88%
COc1ccc([C@H](C)N2CC[C@](CC(O)CO)(c3ccc(F)cc3)OC2=O)cc1 (single isomer, unassigned) [EXAMPLE 206 Isomer 1] : 90.3%
COc1ccc([C@H](C)N2CC[C@](CCO)(c3ccc(F)cc3)OC2=O)cc1 : 96.8%
C=CC[C@]1(c2ccc(F)cc2)CCN([C@@H](C)c2ccc(Br)cc2)C(=O)O1 (single isomer, unassigned) [EXAMPLE 110 Isomer 2] : 96.6%

inhibition at 0.1 µM in this record for C[C@@H](c1ccc(-c2cccs2)cc1)N1CC[C@](CCCO)(c2ccccc2)OC1=O : 92.6%

According to the records, this compound C[C@@H](c1ccc(C2CC2)cc1)N1CC[C@](CCCO)(c2ccc(F)cc2)OC1=O displays inhibition at 0.1 µM of 98.3%

* * *

// values below are reported inhibition at 0.1 µM
- MEASURED TARGET: 11β-HSD1 (Homo sapiens)
- ASSAY OVERVIEW: biochemical
- STUDY CONDITIONS: read-out: Average % inhibition at 100 nM, Biological Test Example 1; 100 nM compound
Numbers only here, please. The scale is %.

Recorded inhibition at 0.1 µM, per entry:
C[C@@H](c1ccc(-c2ccc(F)cc2)cc1)N1CC[C@](CC(O)CO)(c2ccccc2)OC1=O (single isomer, unassigned) [EXAMPLE 168 Isomer 1] : 97.2
CC[C@@H](c1ccc(-c2ccc(F)cc2F)cc1)N1CC[C@](CCCO)(c2ccc(F)cc2)OC1=O [EXAMPLE 261] : 96.2
C[C@@H](c1ccc(C(F)(F)F)cc1)N1CC[C@](CCCO)(c2ccc(F)cc2)OC1=O [EXAMPLE 294] : 97.2
C=CCC1(c2ccc(F)cc2)CCN([C@@H](C)c2ccc(Cl)cc2)C(=O)O1 (single isomer, unassigned) [EXAMPLE 196 Isomer 1] : 101
CC[C@@H](c1ccc(Br)cc1)N1CC[C@](CC(O)CO)(c2ccccc2)OC1=O (single isomer, unassigned) [EXAMPLE 239 Isomer 1] : 91.5
C=CC[C@]1(c2ccc(F)cc2)CCN([C@@H](C)c2ccc(-c3nnc(C)o3)cc2)C(=O)O1 [EXAMPLE 215] : 72.1

Briefly, inhibition at 0.1 µM measured for C[C@@H](c1ccc(-c2ccc(F)cc2)cc1)N1CC[C@](CCCNS(C)(=O)=O)(c2ccccc2)OC1=O [EXAMPLE 270] : 96.1

Form field inhibition at 0.1 µM, entry C=CC[C@]1(c2ccc(F)cc2)CCN([C@@H](C)c2ccc(C#N)cc2)C(=O)O1 [EXAMPLE 192] : 70.7

Value of inhibition at 0.1 µM reported for the molecule C[C@@H](c1ccc(Cl)cc1)N1CC[C@](CCC(N)=O)(c2ccccc2)OC1=O [EXAMPLE 287] is 89.8
